Target: PD-1/PD-L1 (Homo sapiens, UniProt Q9NZQ7)
Construct: Recombinant human PD-L1 protein (19-238) with a His-tag at the C-terminus; purchased AcroBiosystems PD1-H5229 (PD-L1); PD1-H5257 (PD-1)
Sequence (Q9NZQ7 19-238): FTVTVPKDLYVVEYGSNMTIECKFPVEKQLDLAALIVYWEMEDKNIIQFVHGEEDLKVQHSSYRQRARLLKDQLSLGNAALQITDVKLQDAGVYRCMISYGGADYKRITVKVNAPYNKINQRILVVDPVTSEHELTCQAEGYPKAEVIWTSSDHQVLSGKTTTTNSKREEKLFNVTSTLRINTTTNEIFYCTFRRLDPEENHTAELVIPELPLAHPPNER
Assay: PD-1/PD-L1 homogenous time-resolved fluorescence (HTRF) binding assay
Conditions: recombinant human PD-L1 (19-238) His-tag / human PD-1 (25-167) Fc tag, numeric values
metric_name: IC50 (nM)
Answer in nM, number only, no unit symbol.

// worked examples, IC50 included
[
  {
    "compound": "Cc1c(NC(=O)c2nnc(C3(N)CCC3)s2)cccc1-c1cccc(NC(=O)c2nnc(C3(N)CCC3)s2)c1C [Example 27]",
    "target_desc": "PD-1/PD-L1 (Homo sapiens, UniProt Q9NZQ7)",
    "IC50 (nM)": 3.13
  },
  {
    "compound": "Cc1c(NC(=O)c2nc3c(s2)CNCC3)cccc1-c1cccc(NC(=O)c2nc3c(s2)CNCC3)c1C [Example 1]",
    "target_desc": "PD-1/PD-L1 (Homo sapiens, UniProt Q9NZQ7)",
    "IC50 (nM)": 0.48
  },
  {
    "compound": "CN1CCc2nc(C(=O)Nc3cccc(-c4cccc(NC(=O)c5nc6c(s5)CN(C)CC6)c4Cl)c3Cl)sc2C1 [Example 44]",
    "target_desc": "PD-1/PD-L1 (Homo sapiens, UniProt Q9NZQ7)",
    "IC50 (nM)": 0.62
  },
  {
    "compound": "Cc1c(NC(=O)c2nc3c(s2)CNCC3)cccc1-c1ccccc1 [Com. EX. No. 1, reference compound]",
    "target_desc": "PD-1/PD-L1 (Homo sapiens, UniProt Q9NZQ7)",
    "IC50 (nM)": 212
  }
]

Measured IC50 of Cc1c(NC(=O)c2nc3c(s2)CN(C)CC3)cccc1-c1cccc(NC(=O)c2nc3c(s2)CN(C)CC3)c1C [Example 2] : 0.74

Measured IC50 of Cc1c(NC(=O)c2cc3c(s2)CNCC3)cccc1-c1cccc(NC(=O)c2cc3c(s2)CNCC3)c1C [Example 32] : 18.1

Measured IC50 of O=C(O)CN1CCc2nc(C(=O)N3CCc4c(-c5cccc6c5CCN6C(=O)c5nc6c(s5)CN(CC(=O)O)CC6)cccc43)sc2C1 [Example 103] : 0.37

Measured IC50 of O=C(c1nc2c(s1)CNCC2)N1CCc2c(-c3cccc4c3CCN4C(=O)c3nc4c(s3)CNCC4)cccc21 [Example 33] : 0.21

* * *

Biological target: PD-1/PD-L1 (Homo sapiens)
Construct: Recombinant human PD-L1 protein (19-238) with a His-tag at the C-terminus; purchased AcroBiosystems PD1-H5229 (PD-L1); PD1-H5257 (PD-1)
Assay: PD-1/PD-L1 homogenous time-resolved fluorescence (HTRF) binding assay
Conditions: recombinant human PD-L1 (19-238) His-tag / human PD-1 (25-167) Fc tag, class symbols
Protocol: Resolved Fluorescence (HTRF) Binding Assay The assays were conducted in a standard black 384-well polystyrene plate with a final volume of 20 μL. […] Before reading on a PHERAstar FS plate reader (665 nm/620 nm ratio). […] Data obtained for the Example compounds using the PD-1/PD-L1 homogenous time-resolved fluorescence (HTRF) binding assay described in Example A is provided in Table 4.
Entries and their IC50

// worked examples, IC50 included
[
  {
    "compound": "O=C(O)CN1CCc2sc(C(=O)N3CCc4c(-c5cccc6c5CCN6C(=O)c5nc6c(s5)CCN(CC(=O)O)C6)cccc43)nc2C1 [Example 119]",
    "IC50": "< 25 nM"
  },
  {
    "compound": "Cc1c(Nc2nccc3cc(CNCC(N)=O)cnc23)cccc1-c1cccc(Nc2nccc3cc(CNCC(N)=O)cnc23)c1C [Example 144]",
    "IC50": "< 25 nM"
  },
  {
    "compound": "Cc1c(NC(=O)c2ccc3c(n2)CCN(CC(F)F)C3)cccc1-c1cccc(NC(=O)c2ccc3c(n2)CCN(CC(F)F)C3)c1C [Example 187]",
    "IC50": "25 to 100 nM"
  },
  {
    "compound": "Cc1c(Nc2nccc3cc(CNCC(=O)O)cnc23)cccc1-c1cccc(Nc2nccc3cc(CN4CC[C@H](N(C)C)C4)cnc23)c1C [Example 154]",
    "IC50": "< 25 nM"
  },
  {
    "compound": "CS(=O)(=O)NC(=O)C1(N2CCc3nc(C(=O)N4CCc5c(-c6cccc7c6CCN7C(=O)c6nc7c(s6)CN(C6(C(=O)NS(C)(=O)=O)CC6)CC7)cccc54)sc3C2)CC1 [Example 129]",
    "IC50": "25 to 100 nM"
  }
]

Measured IC50 of CC(=O)N1CCc2nc(C(=O)Nc3cccc(-c4cccc(NC(=O)c5ccc6c(n5)CCNC6)c4C)c3C)ccc2C1 [Example 182] : < 25 nM

Measured IC50 of NC(=O)CN1C2CCC1c1sc(C(=O)N3CCc4c(-c5cccc6c5CCN6C(=O)c5nc6c(s5)C5CCC(C6)N5CC(=O)O)cccc43)nc1C2 (stereo not shown) [Example 111] : < 25 nM

Measured IC50 of Cc1c(NCc2nnc(C3(N)CCC3)s2)cccc1-c1cccc(NCc2nnc(C3(N)CCC3)s2)c1C [Example 26] : 25 to 100 nM

Measured IC50 of Cc1c(NC(=O)c2ccc3c(n2)CCN(CC(=O)OC(C)(C)C)C3)cccc1-c1cccc(NC(=O)c2ccc3c(n2)CCN(CC(=O)OC(C)(C)C)C3)c1C [Example 172] : 100 to 200 nM

Measured IC50 of NC(=S)NCCN1CCc2nc(C(=O)N3CCc4c(-c5cccc6c5CCN6C(=O)c5nc6c(s5)CN(CCNC(N)=S)CC6)cccc43)sc2C1 [Example 133] : < 25 nM

Measured IC50 of NC(=O)CN1CCc2nc(C(=O)N3CCc4c(-c5cccc6c5CCN6C(=O)c5nc6c(s5)CN(CC(=O)O)CC6)cccc43)sc2C1 [Example 107] : < 25 nM

Measured IC50 of Cc1c(NC(=O)c2nnc(CNCCO)s2)cccc1-c1cccc(NC(=O)c2nnc(CNCCO)s2)c1C [Example 73] : < 25 nM

Measured IC50 of CC(C)[C@H](NCc1cnc(C(=O)Nc2cccc(-c3cccc(NC(=O)c4ncc(CN[C@H](C(=O)O)C(C)C)s4)c3Cl)c2Cl)s1)C(=O)O [Example 69] : < 25 nM

Measured IC50 of Cc1c(Nc2nccc3cc(CNCCO)cnc23)cccc1-c1cccc2c1CCN2C(=O)C1=NC2CCN(CCC(=O)O)CC2S1 (stereo not shown) [Example 162] : < 25 nM

Measured IC50 of N#Cc1c(NC(=O)c2nc3c(s2)CNCC3)cccc1-c1cccc(NC(=O)c2nc3c(s2)CNCC3)c1C#N [Example 74] : < 25 nM

Measured IC50 of Cc1nc(C(=O)N2CCc3c(-c4cccc5c4CCN5C(=O)c4nc(C)c(CN[C@H](C(=O)O)C5CCOCC5)s4)cccc32)sc1CN[C@H](C(=O)O)C1CCOCC1 [Example 57] : < 25 nM

Measured IC50 of Cc1c(Nc2nccc3cc(CNCC(=O)N(C)C)cnc23)cccc1-c1cccc2c1CCN2C(=O)C1=NC2CCN(CC(=O)O)CC2S1 (stereo not shown) [Example 165] : < 25 nM

Measured IC50 of O=C(c1nc2c(s1)CN(CCCB(O)O)CC2)N1CCc2c(-c3cccc4c3CCN4C(=O)c3nc4c(s3)CN(CCCB(O)O)CC4)cccc21 [Example 121] : < 25 nM

Measured IC50 of Cc1c(Nc2nccc3cc(CNCCO)cnc23)cccc1-c1cccc(Nc2nccc3cc(CNCC(=O)O)cnc23)c1C [Example 139] : < 25 nM

Measured IC50 of Cc1c(Nc2nccc3cc(CNC(C(=O)O)C(C)C)cnc23)cccc1-c1cccc(Nc2nccc3cc(CNC(C(=O)O)C(C)C)cnc23)c1C (stereo not shown) [Example 142] : < 25 nM

Sourced from patent US20210040118A1
